Please provide measured IC50 for the entries that follow.
Study system: EGFR TK (Homo sapiens, UniProt P00533)
Construct: purchased Cell Signaling Technology
Sequence (P00533 25-1210): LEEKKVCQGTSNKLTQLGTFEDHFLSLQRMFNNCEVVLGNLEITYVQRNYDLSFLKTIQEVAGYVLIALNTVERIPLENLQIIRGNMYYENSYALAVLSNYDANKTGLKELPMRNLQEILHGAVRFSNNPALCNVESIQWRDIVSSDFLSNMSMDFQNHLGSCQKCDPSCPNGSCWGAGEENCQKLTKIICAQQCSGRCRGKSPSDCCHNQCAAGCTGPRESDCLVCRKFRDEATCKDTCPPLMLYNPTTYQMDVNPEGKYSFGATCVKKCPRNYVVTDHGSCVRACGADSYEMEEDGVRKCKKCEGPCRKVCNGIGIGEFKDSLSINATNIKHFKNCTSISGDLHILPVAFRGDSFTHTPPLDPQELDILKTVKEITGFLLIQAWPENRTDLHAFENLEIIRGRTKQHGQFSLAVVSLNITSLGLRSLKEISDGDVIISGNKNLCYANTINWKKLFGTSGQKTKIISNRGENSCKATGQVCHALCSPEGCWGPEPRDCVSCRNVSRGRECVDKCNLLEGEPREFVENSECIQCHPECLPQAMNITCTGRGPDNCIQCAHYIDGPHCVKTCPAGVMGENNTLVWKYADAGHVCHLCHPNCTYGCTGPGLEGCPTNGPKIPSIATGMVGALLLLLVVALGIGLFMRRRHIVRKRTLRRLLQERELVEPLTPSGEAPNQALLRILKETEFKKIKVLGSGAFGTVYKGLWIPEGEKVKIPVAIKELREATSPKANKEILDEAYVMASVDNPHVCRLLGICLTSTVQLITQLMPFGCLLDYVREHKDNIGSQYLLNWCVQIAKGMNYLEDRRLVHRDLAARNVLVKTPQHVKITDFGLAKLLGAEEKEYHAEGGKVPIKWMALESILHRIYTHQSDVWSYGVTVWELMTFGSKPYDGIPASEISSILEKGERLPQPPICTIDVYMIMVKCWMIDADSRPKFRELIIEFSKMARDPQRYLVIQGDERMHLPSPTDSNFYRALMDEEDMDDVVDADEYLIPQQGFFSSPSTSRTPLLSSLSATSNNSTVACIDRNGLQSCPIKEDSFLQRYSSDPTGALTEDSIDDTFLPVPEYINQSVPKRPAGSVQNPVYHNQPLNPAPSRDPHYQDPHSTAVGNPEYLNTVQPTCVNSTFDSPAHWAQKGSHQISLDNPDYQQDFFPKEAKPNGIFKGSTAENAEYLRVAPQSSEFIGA
Assay name: EGFR inhibition assay (HTScan EGFR kinase assay kit)
Format: biochemical
Experimental setup: averages of three independent experiments; compounds tested at concentration of 10 μM; 400 μM ATP
// note: answer is a bare numeric in µM

Please fill in: IC50 reported for CCc1nnc2c(Nc3ccc(C(=O)/C=C/c4ccc(OC)cc4)cc3)nc3ccccc3n12 [Compound 7e] = 0.083

Please fill in: IC50 reported for CCc1nnc2c(Nc3ccc(C(=O)/C=C/c4ccccc4)cc3)nc3ccccc3n12 [Compound 7a] = 0.661

###

Study system: tubulin (Homo sapiens, UniProt P07437+P68363)
Construct: The HCT-116 cell line was obtained from the American Type Culture Collection; endogenous in cells; host or cells: HCT-116
Sequence (P07437 whole entry): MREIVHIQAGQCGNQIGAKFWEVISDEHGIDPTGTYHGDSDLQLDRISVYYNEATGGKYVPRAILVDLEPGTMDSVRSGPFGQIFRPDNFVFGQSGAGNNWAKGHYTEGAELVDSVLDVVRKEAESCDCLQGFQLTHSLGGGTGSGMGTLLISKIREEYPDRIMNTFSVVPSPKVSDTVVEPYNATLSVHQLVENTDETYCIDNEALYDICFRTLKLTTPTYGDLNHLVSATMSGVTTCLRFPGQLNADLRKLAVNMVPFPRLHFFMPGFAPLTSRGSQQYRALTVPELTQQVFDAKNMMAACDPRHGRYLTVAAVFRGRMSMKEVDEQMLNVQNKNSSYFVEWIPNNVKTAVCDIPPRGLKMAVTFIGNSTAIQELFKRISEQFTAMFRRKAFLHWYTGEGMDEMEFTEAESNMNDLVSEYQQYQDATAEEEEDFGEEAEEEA
Sequence (P68363 whole entry): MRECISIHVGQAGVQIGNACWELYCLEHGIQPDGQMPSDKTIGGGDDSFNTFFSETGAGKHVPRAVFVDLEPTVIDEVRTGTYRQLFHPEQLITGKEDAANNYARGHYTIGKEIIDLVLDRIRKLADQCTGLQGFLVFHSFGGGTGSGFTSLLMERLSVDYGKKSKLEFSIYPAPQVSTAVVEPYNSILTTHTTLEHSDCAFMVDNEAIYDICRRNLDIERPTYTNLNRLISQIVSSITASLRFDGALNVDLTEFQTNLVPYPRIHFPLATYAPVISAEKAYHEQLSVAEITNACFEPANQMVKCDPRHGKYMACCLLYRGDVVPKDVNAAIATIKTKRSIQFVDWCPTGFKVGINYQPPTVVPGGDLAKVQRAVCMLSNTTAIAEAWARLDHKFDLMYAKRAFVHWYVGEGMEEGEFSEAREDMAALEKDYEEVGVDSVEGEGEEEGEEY
Assay name: Tubulin polymerization / ELISA for Tubulin Beta (TUBb) in HCT-116 cells
Assay type: cell-based
Experimental setup: abstract text; read-out: antitubulin polymerization activity (abstract)
Value type: pIC50
Note: pIC50 values are expressed as the negative base-10 logarithm of concentration in M.

Please fill in: pIC50 reported for "CCc1nnc2c(Nc3ccc(C(=O)/C=C/c4cc(OC)c(OC)c(OC)c4)cc3)nc3ccccc3n12" = 5.08

###

Study system: tubulin (Homo sapiens, UniProt P07437+P68363)
Construct: The HCT-116 cell line was obtained from the American Type Culture Collection; endogenous in cells; host or cells: HCT-116
Assay name: Tubulin polymerization / ELISA for Tubulin Beta (TUBb) in HCT-116 cells
Type: cell-based
Experimental setup: averages of two independent experiments; read-out: Tubulin Polymerization (IC50 µM)
Value type: IC50

Please fill in: IC50 reported for "CCc1nnc2c(Nc3ccc(C(=O)/C=C/c4ccc(Cl)cc4Cl)cc3)nc3ccccc3n12" = > 100 µM

Please fill in: IC50 reported for "CCc1nnc2c(Nc3ccc(C(=O)/C=C/c4c(Cl)cccc4Cl)cc3)nc3ccccc3n12" = > 100 µM

Please fill in: IC50 reported for "CCc1nnc2c(Nc3ccc(C(=O)/C=C/c4cc(OC)c(OC)c(OC)c4)cc3)nc3ccccc3n12" = 8.84 µM

Please fill in: IC50 reported for "CCc1nnc2c(Nc3ccc(C(=O)/C=C/c4ccc(OC)cc4)cc3)nc3ccccc3n12" = 14.7 µM

Please fill in: IC50 reported for "CCc1nnc2c(Nc3ccc(C(=O)/C=C/c4ccc(O)cc4)cc3)nc3ccccc3n12" = > 100 µM

Please fill in: IC50 reported for "CCc1nnc2c(Nc3ccc(C(=O)/C=C/c4ccc(Cl)cc4)cc3)nc3ccccc3n12" = > 100 µM

###

Study system: tubulin (Homo sapiens, UniProt P07437+P68363)
Construct: The HCT-116 cell line was obtained from the American Type Culture Collection; endogenous in cells; host or cells: HCT-116
Assay name: Tubulin polymerization / ELISA for Tubulin Beta (TUBb) in HCT-116 cells
Type: cell-based
Experimental setup: averages of two independent experiments; read-out: Tubulin Polymerization (IC50 µM)
Value type: IC50 (µM)
// note: answer is a bare numeric in µM

Reported tubulin (Homo sapiens, UniProt P07437+P68363) IC50 for item "CCc1nnc2c(Nc3ccc(C(=O)/C=C/c4ccccc4OC)cc3)nc3ccccc3n12" was 18.1

Reported tubulin (Homo sapiens, UniProt P07437+P68363) IC50 for item "CCc1nnc2c(Nc3ccc(C(=O)/C=C/c4ccccc4O)cc3)nc3ccccc3n12" was 43.4

Reported tubulin (Homo sapiens, UniProt P07437+P68363) IC50 for item "CCc1nnc2c(Nc3ccc(C(=O)/C=C/c4ccccc4)cc3)nc3ccccc3n12" was 77.1

###

Study system: EGFR TK (Homo sapiens)
Construct: purchased Cell Signaling Technology
Assay name: EGFR inhibition assay (HTScan EGFR kinase assay kit)
Format: biochemical
Experimental setup: averages of three independent experiments; compounds tested at concentration of 10 μM; 400 μM ATP
Please provide measured IC50 for the entries that follow.

Please fill in: IC50 reported for "CCc1nnc2c(Nc3ccc(C(=O)/C=C/c4ccc(C)cc4)cc3)nc3ccccc3n12" = > 100 µM

Please fill in: IC50 reported for "CCc1nnc2c(Nc3ccc(C(=O)/C=C/c4ccc(O)cc4)cc3)nc3ccccc3n12" = > 50 µM

Please fill in: IC50 reported for "CCc1nnc2c(Nc3ccc(C(=O)/C=C/c4ccc([N+](=O)[O-])cc4)cc3)nc3ccccc3n12" = > 100 µM

Please fill in: IC50 reported for "CCc1nnc2c(Nc3ccc(C(=O)/C=C/c4c(Cl)cccc4Cl)cc3)nc3ccccc3n12" = > 100 µM

Please fill in: IC50 reported for "CCc1nnc2c(Nc3ccc(C(=O)/C=C/c4cc(OC)c(OC)c(OC)c4)cc3)nc3ccccc3n12" = 0.039 µM

###

Value type: melting point

Please fill in: melting point reported for "CCc1nnc2c(Nc3ccc(C(=O)/C=C/c4ccc(C)cc4)cc3)nc3ccccc3n12" = 247 to 249 °C

Please fill in: melting point reported for "CCc1nnc2c(Nc3ccc(C(=O)/C=C/c4ccc(Cl)cc4)cc3)nc3ccccc3n12" = 255 to 257 °C

Please fill in: melting point reported for "CCc1nnc2c(Nc3ccc(C(=O)/C=C/c4ccc([N+](=O)[O-])cc4)cc3)nc3ccccc3n12" = 260 to 262 °C

Please fill in: melting point reported for "CCc1nnc2c(Nc3ccc(C(=O)/C=C/c4ccccc4)cc3)nc3ccccc3n12" = 260 to 262 °C

Please fill in: melting point reported for "CCc1nnc2c(Nc3ccc(C(=O)/C=C/c4ccc(Cl)cc4Cl)cc3)nc3ccccc3n12" = 250 to 252 °C

Please fill in: melting point reported for "CCc1nnc2c(Cl)nc3ccccc3n12" = 158 to 160 °C

Please fill in: melting point reported for "CCc1nnc2c(Nc3ccc(C(=O)/C=C/c4ccccc4OC)cc3)nc3ccccc3n12" = 264 to 266 °C

Please fill in: melting point reported for "CCc1nnc2c(Nc3ccc(C(=O)/C=C/c4ccc(O)cc4)cc3)nc3ccccc3n12" = 253 to 255 °C

Please fill in: melting point reported for "CCc1nnc2c(Nc3ccc(C(=O)/C=C/c4c(Cl)cccc4Cl)cc3)nc3ccccc3n12" = 250 to 252 °C

Please fill in: melting point reported for "CCc1nnc2c(Nc3ccc(C(C)=O)cc3)nc3ccccc3n12" = 235 to 237 °C

Please fill in: melting point reported for "CCc1nnc2c(Nc3ccc(C(=O)/C=C/c4ccccc4O)cc3)nc3ccccc3n12" = 261 to 263 °C

###

Test system: HepG-2
Assay name: MTT cytotoxicity assay, HepG-2
Format: cell-based
Experimental setup: Homo sapiens, HepG2, 72 h exposure, mean ± SD
Please assign f whenever IC50 is at or above 30 µM, and t whenever it is below.

[Q] Hello, is IC50 of the following molecule strictly smaller than 30 µM? "CCc1nnc2c(Nc3ccc(C(=O)/C=C/c4ccc([N+](=O)[O-])cc4)cc3)nc3ccccc3n12"
[A] f

[Q] Hello, is IC50 of the following molecule strictly smaller than 30 µM? "CCc1nnc2c(Nc3ccc(C(=O)/C=C/c4cc(OC)c(OC)c(OC)c4)cc3)nc3ccccc3n12"
[A] t

[Q] Hello, is IC50 of the following molecule strictly smaller than 30 µM? "CCc1nnc2c(Nc3ccc(C(=O)/C=C/c4ccccc4)cc3)nc3ccccc3n12"
[A] f

[Q] Hello, is IC50 of the following molecule strictly smaller than 30 µM? "CCc1nnc2c(Nc3ccc(C(=O)/C=C/c4ccccc4O)cc3)nc3ccccc3n12"
[A] t

[Q] Hello, is IC50 of the following molecule strictly smaller than 30 µM? "CCc1nnc2c(Cl)nc3ccccc3n12"
[A] f

[Q] Hello, is IC50 of the following molecule strictly smaller than 30 µM? "CCc1nnc2c(Nc3ccc(C(=O)/C=C/c4c(Cl)cccc4Cl)cc3)nc3ccccc3n12"
[A] f

[Q] Hello, is IC50 of the following molecule strictly smaller than 30 µM? "CCc1nnc2c(Nc3ccc(C(C)=O)cc3)nc3ccccc3n12"
[A] f

[Q] Hello, is IC50 of the following molecule strictly smaller than 30 µM? "CCc1nnc2c(Nc3ccc(C(=O)/C=C/c4ccc(O)cc4)cc3)nc3ccccc3n12"
[A] f

[Q] Hello, is IC50 of the following molecule strictly smaller than 30 µM? "CCc1nnc2c(Nc3ccc(C(=O)/C=C/c4ccc(Cl)cc4)cc3)nc3ccccc3n12"
[A] f

[Q] Hello, is IC50 of the following molecule strictly smaller than 30 µM? "CCc1nnc2c(Nc3ccc(C(=O)/C=C/c4ccc(OC)cc4)cc3)nc3ccccc3n12"
[A] f

[Q] Hello, is IC50 of the following molecule strictly smaller than 30 µM? COc1cccc2c1C(=O)c1c(O)c3c(c(O)c1C2=O)C[C@@](O)(C(=O)CO)C[C@@H]3O[C@H]1C[C@H](N)[C@H](O)[C@H](C)O1 [Doxorubicin, reference compound]
[A] t

[Q] Hello, is IC50 of the following molecule strictly smaller than 30 µM? "CCc1nnc2c(Nc3ccc(C(=O)/C=C/c4ccc(Cl)cc4Cl)cc3)nc3ccccc3n12"
[A] f

[Q] Hello, is IC50 of the following molecule strictly smaller than 30 µM? "CCc1nnc2c(Nc3ccc(C(=O)/C=C/c4ccc(C)cc4)cc3)nc3ccccc3n12"
[A] f
